# System: MCF07
# experiment description: CellTiterGlo luminescent cell viability assay, MCF07
# recorded conditions: Homo sapiens, 72 h, read-out: Cytotoxicity IC50 MCF07, 72 h incubation, CellTiter-Glo, mean ± SD
As shown below, each of these compounds has a reported pIC50 value.
pIC50 field: float, defined as -log10 of concentration (mol/L).

Here's what some known entries look like.
compound	endpoint result
COC(=O)[C@]1(C)CCC[C@]2(C)C3=C(C=C(C(C)C)C(=O)C3=O)CC[C@@H]12 [Compound 7]	5.08
CC(C)C1=CC2=C(C(=O)C1=O)[C@@]1(C)CCC[C@@](C)(CN3C(=O)c4ccccc4C3=O)[C@@H]1CC2 [Compound 8]	5.64
CC(C)c1cc2c(cc1O)[C@@]1(C)CCCC(C)(C)[C@@H]1CC2 [Compound 1, ferruginol]	4.72
CC(C)c1cc2c(c(O)c1O)[C@@]1(C)CCC[C@@](C)(CN3C(=O)c4ccccc4C3=O)[C@@H]1CC2 [Compound 10]	5.34

Next item in the queue.
Asked: Determine from records and report pIC50 for CC(C)c1cc2c(cc1O)[C@@]1(C)CCC[C@@](C)(CN)[C@@H]1CC2 [Compound 2, 12-hydroxydehydroabietylamine]
Given back: 5.00

====

As shown below, each of these compounds has a reported IC50 at 72 h value.
# experiment description: CellTiterGlo cell viability assay, non-neoplastic cell line BJ
# recorded conditions: human, BJ cells (non-neoplastic, non-tumorigenic cell line), Cytotoxicity IC50 BJ, 72 h incubation, CellTiter-Glo, mean ± SD
Lab book: enter the figure in µM, no units written.

COC(=O)[C@]1(C)CCC[C@]2(C)C3=C(C=C(C(C)C)C(=O)C3=O)CC[C@@H]12 56.5
CC(C)C1=CC2=C(C(=O)C1=O)[C@@]1(C)CCC[C@@](C)(CN3C(=O)c4ccccc4C3=O)[C@@H]1CC2 35.4

Next item in the queue.
Asked: Determine from records and report IC50 at 72 h for CC(C)c1cc2c(cc1O)[C@@]1(C)CCC[C@@](C)(CN3C(=O)c4ccccc4C3=O)[C@@H]1CC2
Given back: 74.8

====

# experiment description: in vitro
# recorded conditions: human, Cytotoxicity IC50 BJ
As shown below, each of these compounds has a reported IC50 at 72 h value.
Reply with the number, then its unit.

Here's what some known entries look like.
compound	endpoint result
CC(C)c1cc2c(c(O)c1O)[C@@]1(C)CCC[C@@](C)(CN3C(=O)c4ccccc4C3=O)[C@@H]1CC2 [Compound 10]	32.5 µM
CC(C)c1cc2c(cc1O)[C@@]1(C)CCC[C@@](C)(CN)[C@@H]1CC2 [Compound 2, 12-hydroxydehydroabietylamine]	75 µM

Asked: Determine from records and report IC50 at 72 h for COC(=O)[C@]1(C)CCC[C@]2(C)c3c(cc(C(C)C)c(O)c3O)CC[C@@H]12 [Compound 9, Methyl 11,12-Dihydroxy-dehydroabietate]
Given back: 57.6 µM

====

As shown below, each of these molecules has a reported IC50 value.
# System: SUM149
# experiment description: CellTiterGlo luminescent cell viability assay, SUM149
# recorded conditions: Homo sapiens, SUM149, 72 h, read-out: Cytotoxicity IC50 SUM149

molecule	observed property	endpoint result
CC(C)c1cc2c(cc1O)[C@@]1(C)CCC[C@@](C)(CN)[C@@H]1CC2 [Compound 2, 12-hydroxydehydroabietylamine]	IC50	4400 nM
CC(C)c1cc2c(c(O)c1O)[C@@]1(C)CCC[C@@](C)(CN3C(=O)c4ccccc4C3=O)[C@@H]1CC2	IC50	1800 nM
CC(C)c1cc2c(cc1O)[C@@]1(C)CCCC(C)(C)[C@@H]1CC2	IC50	> 50000 nM
CC(C)C1=CC2=C(C(=O)C1=O)[C@@]1(C)CCC[C@@](C)(CN3C(=O)c4ccccc4C3=O)[C@@H]1CC2	IC50	1500 nM

Asked: Determine from records and report IC50 for COC(=O)[C@]1(C)CCC[C@]2(C)c3c(cc(C(C)C)c(O)c3O)CC[C@@H]12 [Compound 9, Methyl 11,12-Dihydroxy-dehydroabietate]
Given back: > 50000 nM

Asked: Determine from records and report IC50 for COC(=O)[C@]1(C)CCC[C@]2(C)C3=C(C=C(C(C)C)C(=O)C3=O)CC[C@@H]12
Given back: 1300 nM
